From: patent US20230322924A1

Target: T1, Cyno CD33 full length (cynomolgus monkey)
T1 construct: also called cyCD33
Assay: flow cytometry on HEK293F cells expressing cyno CD33
Protocol: The purified antibodies were assessed for binding to stably transfected HEK293F cells expressing human CD33 or cyno CD33 (generation described above) along with the parental HEK293F as negative control. […] 30 μl running buffer containing Sytox Green live/dead dye (ThermoFisher) was added to all wells with cells and the plates were read on an iQue IntelliCyt flow cytometer. […] Antibody binding was assessed by the mean fluorescence intensity in the AF647 channel. […]
Record form. Attribute: MFI at 60 nM. Fill in for each entry.
Report only the number, with the unit MFI understood.

Give me measured MFI at 60 nM, please, for this binder: C33B910 (antibody, V domains shown, OMNIMouse-derived anti-CD33 mAb; same V regions as C33B902; also called C33H250/C33L116) VH: EVQLVESGGGLVQPGRSLRLSCAGSGFTFDDYAIHWVRQAPGKGLEWVSGLSWNGGNIGYADSVKGRFTISRDNAKNSLYLQLNSLKTEDTAFYYCAKDSPYGDYFDYWGQGTLVTVSS VL: DIQMTQSPSSEWASVGDRVTITCRASQGISSWLAWYQQKPGKAPKLLIYGASSWQSGVPSRFSGSGSGTDFTLTISSLQPEDFATYYCQQDNSFPYTFGQGTKLEIK
202

Give me measured MFI at 60 nM, please, for this binder: C33B916 (antibody, V domains shown, OMNIMouse-derived anti-CD33 mAb; same V regions as C33B908; also called C33H256/C33L122; C33F554) VH: QVQLVESGGGVVQPGRSLRLSCATSGFTFSNYGMHWVRQAPGKGLEWVAVIWYVGSHKYYADSVKGRFTISRDNSKNTLYLQMNSLRAEDTAVYYCARDGSLCFDYWGQGTLVTVSS VL: SYELTQPPSVSVSPGQTANISCSGVTLGYNYAYWYQQKPGQSPILVISQDTQRPSGIPERFSGSNSGNTATLTISGTQAMDEAAYYCQAWDITTVLFGGGTKLTVL
41000

Give me measured MFI at 60 nM, please, for this binder: C33B912 (antibody, V domains shown, OMNIMouse-derived anti-CD33 mAb; also called C33H252/C33L118; C33F550) VH: EVQLVESGGGLVQPGRSLRLSCAASGFTFDDYAMHWVRQAPGKGLEWVSGIGWSGGSIVYADSVKGRFTISRDNAKNSLYLQMNSLRAEDTALYYCAKDSPYGDFFDYWGQGTLVTVSS VL: DIVMTQSPDSLAVSLGERATINCKSSQTVFYSSNNKNYLAWYQQKPGQPPKLLISWASTRKSGVPDRFSGSGSGTDFTLTVSSLQAEDVAVYYCQHYYSTPYTFGQGTKLEIK
15100
